k cat for assorted compounds
Test: Kcat was determined
Type: ADME

{"Compound": "NP(=O)(OCc1ccc([N+](=O)[O-])cc1)N(CCCl)CCCl (configuration not stated)", "k cat / s⁻¹": 14}
{"Compound": "NC(=O)c1cc(N2CC2)c([N+](=O)[O-])cc1[N+](=O)[O-]", "k cat / s⁻¹": 6.6}

* * *

Test: Inhibitory activity against V79 (chinese hamster fibroblast) cell line with Escherichia coli nitroreductase combination after 1 hour drug exposure
Assay type: functional, cell-based, Cricetulus griseus
pIC50: −log10 of the molar value.
Reported property: pIC50

{"Compound": "NC(=O)c1cc(N2CC2)c([N+](=O)[O-])cc1[N+](=O)[O-]", "Endpoint value": 6.51}
{"Compound": "O=[N+]([O-])c1cccc([C@@H]2CCNP(=O)(N(CCCl)CCCl)O2)c1 (some centres undefined)", "Endpoint value": 6.77}
{"Compound": "O=[N+]([O-])c1cccc([C@H]2CCNP(=O)(N(CCCl)CCCl)O2)c1 (some centres undefined)", "Endpoint value": 6.47}
{"Compound": "NP(=O)(OCc1ccc([N+](=O)[O-])cc1)N(CCCl)CCCl (centres undefined)", "Endpoint value": 8.00}
